Data credit: PubChem BioAssay (NCI)

Collected TGI values appear next to each entry.
System: HOP-92 NSCLC
Assay: NCI tumour cell line growth inhibition, 48 h

Compound: COc1cc2oc(-c3ccccc3)cc(=O)c2c(O)c1C
Units symbol: µM
Qualifying sign: >
TGI: 100

Compound: CSc1nc(CO)c(CO)n1C
Units symbol: µM
Qualifying sign: >
TGI: 100

Compound: CC(C)(C)C(=O)Nc1cccc2oc(-c3ccccc3)cc12
Units symbol: µM
Qualifying sign: =
TGI: 96.4

Compound: CC1(CO)COS(=O)OC1 (stereo not given)
Units symbol: µM
Qualifying sign: >
TGI: 100

Compound: CCn1c2ccccc2c(=O)c2c(OC)ccc(OC)c21
Units symbol: µM
Qualifying sign: =
TGI: 98.7

Compound: O=C1CC(c2ccccc2)Cc2nc3ccc(Br)cc3cc21 (stereo not given)
Units symbol: µM
Qualifying sign: =
TGI: 46.1

Compound: Cn1c(=O)c2nc3c(=O)n(C)c(=O)n(CC(N)=O)c3nc2n(C)c1=O
Units symbol: µM
Qualifying sign: >
TGI: 100

Compound: COc1ccc(C(=NN=C(N)N)c2ccc(OC)cc2)cc1
Units symbol: µM
Qualifying sign: =
TGI: 7.45

Compound: COc1ccc(N2C(=O)C3c4[nH]c5ccccc5c4C4CC(C)(C)CC(C)(C)C4C3C2=O)cc1 (stereo not given)
Units symbol: µM
Qualifying sign: =
TGI: 28.7

Compound: CC(=O)Nc1cccc(N2C(=O)/C(=C\c3cccc(Oc4ccccc4)c3)S(=O)(=O)C2c2ccccc2)c1 (stereo not given)
Units symbol: µM
Qualifying sign: >
TGI: 100

Compound: O=C1C2CCCCC2C(=O)N1n1c(-c2ccccc2)n[nH]c1=O (stereo not given)
Units symbol: µM
Qualifying sign: >
TGI: 100

Compound: O=c1cc(NNCc2ccccc2)[nH]c(=O)[nH]1
Units symbol: µM
Qualifying sign: >
TGI: 100

Compound: N#CC1=C2SCCN2C(=O)C(C#N)C12CCCCC2 (stereo not given)
Units symbol: µM
Qualifying sign: >
TGI: 100

Compound: Cc1[nH]c(=O)[nH]c(=O)c1/C=C/C(=O)NC(CO)CS(=O)CS(C)=O (stereo not given)
Units symbol: µM
Qualifying sign: =
TGI: 44

Compound: Oc1ccc2c3c1OC1c4[nH]ncc4C[C@H]4[C@@H](C2)N(CC2CC2)CC[C@]314 (stereo not given in full)
Units symbol: µM
Qualifying sign: >
TGI: 100

Compound: Clc1cc(Cl)c2cc3cccc[n+]3cc2c1Cl
Units symbol: µM
Qualifying sign: =
TGI: 21.7

Compound: CCOC(=O)C1=C(C)NC(=O)NC1CN1C(=O)c2ccccc2C1=O (stereo not given)
Units symbol: µM
Qualifying sign: >
TGI: 100

Compound: COC(=O)[C@]12CC[C@@H](C)[C@H](C)[C@@H]1C1=CC[C@@H]3[C@@]4(C)C[C@@H](OC(=O)/C=C/c5ccccc5)[C@H](O)[C@@](C)(CO)[C@@H]4[C@H](O)C[C@@]3(C)[C@]1(C)CC2
Units symbol: µM
Qualifying sign: =
TGI: 6.42

Compound: CC(=O)NCCCCN(CCCNC(C)=O)C(=O)CNS(=O)(=O)c1cccc2c(N(C)C)cccc12
Units symbol: µM
Qualifying sign: >
TGI: 100

Compound: C=C1C[C@@H]2O[C@H]3[C@H]4[C@@H](C[C@@H](C)[C@@H](OC(C)=O)[C@H]42)[C@@H](C)CO[C@@]3(C)[C@H](OC(=O)CCCCCCC)C[C@H]1O
Units symbol: µM
Qualifying sign: =
TGI: 30.4
